Values compiled from PubChem BioAssay (Tox21).

Test summary: qHTS RealTime-Glo MT Cell Viability Assay in HepG2 cells - 40 hour (AID 1224870); also: nearly all actives have a fitted effect of over 50% in size
Reported conditions: RealTime-Glo luminescence; series mostly up to 76.8 µM
Inconclusive results are not listed. Calls of active or inactive are those of the source. Calls follow the shape of the dose curve; as a rule, active = well fitted cell-killing curve with a large enough effect in the repeat runs; inconclusive = weak or mixed curves, or effect the other way; inactive = flat fitted curve, though single readings scatter.
Respond only with the outcome that fits, drawn from active, inactive

Oc1cc(O)c(Cl)cc1Cl : inactive
Nc1ccc(S(=O)(=O)O)cc1 : inactive
O=C(CCCCCCCCC#CI)Oc1ccccc1 : active
Nc1ccc(Cl)cc1[N+](=O)[O-] : inactive
CCOC(=O)c1ccccc1OC : inactive
CC(C)C(OC(=O)c1ccccc1)C(C)(C)COC(=O)c1ccccc1 (stereo not drawn) : inactive
CCC(C)(O)CCC=C(C)C (stereo not drawn) : inactive
CC(CCc1ccc2c(c1)OCO2)NN (stereo not drawn) : inactive
CC1=C(C=O)C(C)(C)CCC1 : inactive
CCCCC/C(=C\c1ccccc1)CO : inactive

Recorded test outcome, item CCNC(=O)N1CCN(CCCC(c2ccc(F)cc2)c2ccc(F)cc2)CC1
inactive

Recorded test outcome, item Cc1ccc(S)cc1
inactive

Recorded test outcome, item CC(C)c1nnc2ccc(-c3ocnc3-c3cc(F)ccc3F)cn12
inactive
